Tested on: Human dermal papilla cells
Test: Dermal papilla cell growth promoting activity (WST-1, spheroid culture), Test Example 5
Type: cell-based
Conditions: Homo sapiens, Human dermal papilla cell; 4 μM, 72 hours, average of 3 wells; read-out: ΔO.D. 450 nm/620 nm (% of control)
valueType: activity at 4 µM (%)
The figure you give is taken to be in %; do not add the unit.

// activity at 4 µM lookup, key: "C[C@@H]1C[C@@H]2O[C@H]2CC/C=C/C(=O)Cc2c(Cl)c(O)cc(O)c2C(=O)O1"
92.9

# repeat for "CC(=O)Oc1cc(OC(C)=O)c2c(c1Cl)CC(=O)/C=C/C=C\[C@@H]1O[C@H]1C[C@@H](C)OC2=O"
167

Entry to check: "C[C@@H]1C[C@@H]2O[C@H]2/C=C\C=C\C(=O)Cc2c(Cl)c(OCC(=O)Sc3ccccc3)cc(OCC(=O)Sc3ccccc3)c2C(=O)O1"
143
